Listed here: items and their measured protein stability index.
B1: TRAF3IP2 (parent)
chain: KQGSMNFRFIPVLFPNAKKEHVPT

Variants of: B1
Test: protein stability index of a GFP-peptide fusion (GPS, HEK-293T) (PSI 1-6); higher = more stable;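 note: lentivirally expressed fusions sorted by FACS into six bins by GFP to DsRed ratio, PSI derived from sequencing read proportions per bin multiplied by bin number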
Settings: c terminus: a fixed tail appended
Form: value (number only, do not type unit).

R8E 3.28

Name the recorded protein stability index of the item M5Y in your answer.
1.87

Name the recorded protein stability index of the item V12I in your answer.
2.14

Name the recorded protein stability index of the item H21Q in your answer.
1.78

Name the recorded protein stability index of the item N6P in your answer.
2.44

Name the recorded protein stability index of the item M5L in your answer.
1.97

Name the recorded protein stability index of the item F7V in your answer.
2.13

Name the recorded protein stability index of the item H21A in your answer.
2.19

Name the recorded protein stability index of the item H21Y in your answer.
1.82

Name the recorded protein stability index of the item R8W in your answer.
2.44

Name the recorded protein stability index of the item P11H in your answer.
2.14

Name the recorded protein stability index of the item K18P in your answer.
1.77

Name the recorded protein stability index of the item V22S in your answer.
3

Name the recorded protein stability index of the item I10F in your answer.
2.11

Name the recorded protein stability index of the item F9S in your answer.
3.2

Name the recorded protein stability index of the item H21V in your answer.
1.94

Name the recorded protein stability index of the item V12E in your answer.
2.76

Name the recorded protein stability index of the item S4D in your answer.
2.4

Name the recorded protein stability index of the item P23R in your answer.
2.05

Name the recorded protein stability index of the item I10L in your answer.
2.23

Name the recorded protein stability index of the item K1T in your answer.
2.32

Name the recorded protein stability index of the item S4R in your answer.
1.48

Name the recorded protein stability index of the item N6D in your answer.
1.89
